Origin of measurements: patent US20250129069A1

Target: human Werner helicase (WRN, amino acids 517-1235 with L1074F point mutation) (Homo sapiens (Human), UniProt Q14191, L1074F)
Sequence (Q14191 other isoform, or with tags, fused parts or gaps L1074F (already in the parent)): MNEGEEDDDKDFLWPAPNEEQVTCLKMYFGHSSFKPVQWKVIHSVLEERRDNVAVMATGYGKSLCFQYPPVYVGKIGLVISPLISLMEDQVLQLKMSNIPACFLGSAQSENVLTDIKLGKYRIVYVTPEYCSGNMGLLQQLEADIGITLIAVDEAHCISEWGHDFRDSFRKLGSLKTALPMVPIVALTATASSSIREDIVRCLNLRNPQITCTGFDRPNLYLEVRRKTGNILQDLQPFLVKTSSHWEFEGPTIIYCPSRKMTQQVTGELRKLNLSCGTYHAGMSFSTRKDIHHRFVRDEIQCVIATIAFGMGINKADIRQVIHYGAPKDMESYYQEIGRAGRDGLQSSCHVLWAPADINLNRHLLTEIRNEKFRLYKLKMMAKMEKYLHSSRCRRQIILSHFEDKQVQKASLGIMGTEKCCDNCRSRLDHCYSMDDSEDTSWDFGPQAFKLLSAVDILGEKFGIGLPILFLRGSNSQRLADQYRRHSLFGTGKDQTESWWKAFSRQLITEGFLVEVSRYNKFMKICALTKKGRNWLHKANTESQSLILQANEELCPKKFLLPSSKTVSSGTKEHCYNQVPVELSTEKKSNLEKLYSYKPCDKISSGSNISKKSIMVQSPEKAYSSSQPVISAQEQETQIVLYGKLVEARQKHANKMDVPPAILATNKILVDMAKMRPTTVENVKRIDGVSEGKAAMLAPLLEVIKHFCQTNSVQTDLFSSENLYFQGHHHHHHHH
Test: WRN (BV08) ADP-Glo assay
Conditions: human WRN (aa 517-1235, L1074F), read-out: ADP-Glo_hWRN_IC50
measurementKind: IC50

INSERT INTO assay_data (molecule, result) VALUES
  ('CCc1c(C2=CCN(C(=O)c3ncnc(C)c3O)CC2(C)C)c(=O)n2nc(C3=CCOCC3)nc2n1CC(=O)Nc1ccc(C(F)(F)F)cc1Cl', '5 to 50 nM'),
  ('CCc1c(N2CCN(C(=O)c3cccc4oc(=O)[nH]c34)[C@H]3CC[C@@H]32)c(=O)c2nn(C3=CCOCC3)nc2n1CC(=O)NC12CC(C(C)C)(C1)C2', '5 to 50 nM'),
  ('CCc1c(N2CCN(C(=O)c3ncnc(C)c3O)[C@H]3CC[C@@H]32)c(=O)c2nn(-c3cnn(C4CC4)c3)nc2n1CC(=O)NC12CC(C3CC3)(C1)C2', '5 to 50 nM'),
  ('CCc1c(N2CCN(C(=O)c3ncnc(C)c3O)[C@H]3CC[C@@H]32)c(=O)c2nn(-c3ccnc(OC)c3)nc2n1CC(=O)Nc1ccc(C(F)(F)F)cc1F', '≤ 5 nM'),
  ('CCc1c(N2CCN(C(=O)c3ncnc(C)c3O)[C@H]3CC[C@@H]32)c(=O)c2nn(-c3ccnc(OC)c3)nc2n1CC(=O)NC1CCC2(CC1)CC2(F)F (some centres unmarked)', '5 to 50 nM');

* * *

Listed below: IC50 values for each entry.
Target: human Werner helicase (WRN, amino acids 517-1235 with L1074F point mutation) (Homo sapiens (Human), UniProt Q14191, L1074F)
Assay: WRN (BV08) ADP-Glo assay
Conditions: human WRN (aa 517-1235, L1074F), read-out: ADP-Glo_hWRN_IC50
measurementKind: IC50

INSERT INTO measurements (molecule, result) VALUES
  ('CCc1c(N2CCN(C(=O)c3ncncc3OC)[C@H]3CC[C@@H]32)c(=O)c2nn(C3=CCOCC3)nc2n1CC(=O)NC12CC(C(C)C)(C1)C2', '0.005 to 0.05 µM'),
  ('CCc1c(N2CCN(C(=O)c3ncnc(C)c3O)[C@H]3CC[C@@H]32)c(=O)c2nn(-c3cnn(C4CC4)c3)nc2n1CC(=O)Nc1ccc(C(F)(F)F)cc1Cl', '≤ 0.005 µM'),
  ('CCc1c(N2CCN(C(=O)c3ncnc(C)c3O)[C@H]3CC[C@@H]32)c(=O)c2nn(C3=CC(C)OCC3)nc2n1CC(=O)NC12CC(C3CC3)(C1)C2 (some centres unmarked)', '0.005 to 0.05 µM'),
  ('CCc1c(N2CCN(C(=O)c3ncnc(C)c3O)[C@H]3CC[C@@H]32)c(=O)c2nn(-c3ccnc(OC)c3)nc2n1CC(=O)NC12CC(C(C)C)(C1)C2 [Compound I-14]', '0.005 to 0.05 µM'),
  ('CCc1c(N2CCN(C(=O)c3ncnc(C)c3O)CC2)c(=O)c2nn(-c3ccncc3)nc2n1CC(=O)NC12CC(C(C)C)(C1)C2', '0.005 to 0.05 µM'),
  ('CCc1c(N2CCN(C(=O)c3ncnc(C)c3O)[C@H]3CC[C@@H]32)c(=O)c2nn(-c3ccnc(OC)c3)nc2n1CC(=O)NC1CC2(C1)CC2F (some centres unmarked)', '0.005 to 0.05 µM'),
  ('CCc1c(N2CCN(C(=O)c3c(OC)nc(C(F)F)c(C)c3O)[C@H]3CC[C@@H]32)c(=O)c2nn(C3=CCOCC3)nc2n1CC(=O)NC12CC(C3CC3)(C1)C2', '0.005 to 0.05 µM'),
  ('CCc1c(N2CCN(C(=O)c3c(OC)ncc(C)c3O)CC2)c(=O)c2nn(-c3ccnc(OC)c3)nc2n1CC(=O)NC1CC2(C1)CC(F)(F)C2', '0.05 to 0.1 µM'),
  ('CCc1c(N2CCN(C(=O)OC)[C@H]3CC[C@@H]32)c(=O)c2nn(C3=CCOCC3)nc2n1CC(=O)NC12CC(C(C)C)(C1)C2', '0.005 to 0.05 µM'),
  ('CCc1c(N2CCN(C(=O)c3ncnc(C)c3O)[C@H]3CC[C@@H]32)c(=O)c2nn(-c3ccnc(OC)c3)nc2n1CC(=O)NC12CC(C(C)C)(C1)C2 [Compound I-48]', '0.005 to 0.05 µM'),
  ('CCc1c(N2CCN(C(=O)c3ncnc(C)c3O)[C@H]3CC[C@@H]32)c(=O)c2nn(C3=CCOCC3)nc2n1CC(=O)Nc1ccc(C(F)(F)F)cc1Cl', '≤ 0.005 µM');
